Give measured boiling point for each item. Keep answers brief.
Give just the numeric value; °C need not be written.

Find the recorded boiling point belonging to COc1ccco1 and report it.
110

Find the recorded boiling point belonging to C=CCCC=C and report it.
59.4

Find the recorded boiling point belonging to OCC(F)F and report it.
95.5

Find the recorded boiling point belonging to O=C1NCc2ccccc21 and report it.
338

Find the recorded boiling point belonging to Cc1c[nH]c2ccccc12 and report it.
266

Find the recorded boiling point belonging to CCOC(=O)C1CC1 and report it.
134

Find the recorded boiling point belonging to CN1CN(C)CN(C)C1 and report it.
163

Find the recorded boiling point belonging to CC(C)C(C)(C)C(C)(C)C and report it.
166

Find the recorded boiling point belonging to CCCC=C(C=O)CC and report it.
195

Find the recorded boiling point belonging to CC1CCCCS1 (stereo not given) and report it.
153

Find the recorded boiling point belonging to CC(C)(C)c1cc(C(C)(C)C)c(O)c(C(C)(C)C)c1 and report it.
278

Find the recorded boiling point belonging to CCCCOS(=O)OCCCC and report it.
230

Find the recorded boiling point belonging to Fc1c(F)c(F)c(I)c(F)c1F and report it.
166

Find the recorded boiling point belonging to Clc1cccc(-c2cccc(Cl)c2)c1 and report it.
320

Find the recorded boiling point belonging to CC(O)C(C)CO (stereo not given) and report it.
200

Find the recorded boiling point belonging to CCC(=O)O and report it.
141

Find the recorded boiling point belonging to Nc1ccc(Cl)cc1N and report it.
229

Find the recorded boiling point belonging to CSC and report it.
37.3

Find the recorded boiling point belonging to CC1CC(O)CC(C)(C)C1 (stereo not given) and report it.
196

Find the recorded boiling point belonging to CCCOB(OCCC)OCCC and report it.
180

Find the recorded boiling point belonging to Cc1cccc(N)n1 and report it.
208

Find the recorded boiling point belonging to CCCCC(C)C(C)O (stereo not given) and report it.
166

Find the recorded boiling point belonging to Cc1cccc(Br)c1 and report it.
184

Find the recorded boiling point belonging to C[Si](C)(C)Oc1ccccc1 and report it.
119

Find the recorded boiling point belonging to CC(C)OC=O and report it.
68.2

Find the recorded boiling point belonging to Cc1ccc(CCl)cc1 and report it.
201

Find the recorded boiling point belonging to C=CCC(C)(C)C and report it.
72.5

Find the recorded boiling point belonging to CCOC(=O)C(C(C)=O)C(C)=O and report it.
210

Find the recorded boiling point belonging to FC(F)=C(Cl)C(F)(F)F and report it.
6.8

Find the recorded boiling point belonging to CCOc1ccc(NC(C)=O)cc1 and report it.
244

Find the recorded boiling point belonging to CCOCC(=O)O and report it.
206

Find the recorded boiling point belonging to Oc1ccc(Nc2ccccc2)cc1 and report it.
330

Find the recorded boiling point belonging to CC(C)C(C)O (stereo not given) and report it.
112

Find the recorded boiling point belonging to COC(=O)c1cccc(O)c1 and report it.
281

Find the recorded boiling point belonging to Clc1c(Cl)c(Cl)c(Cl)c(Cl)c1Cl and report it.
325

Find the recorded boiling point belonging to CC(C)c1ccccc1N and report it.
221

Find the recorded boiling point belonging to CC[Si](OC)(OC)OC and report it.
124

Find the recorded boiling point belonging to CC(C)CCCCCCO and report it.
206

Find the recorded boiling point belonging to CCCCCCCCOC(=O)CCCC and report it.
262

Find the recorded boiling point belonging to CC(C)COS(=O)OCC(C)C and report it.
210

Find the recorded boiling point belonging to CCN1CCCC(N)C1 (stereo not given) and report it.
155

Find the recorded boiling point belonging to FC(F)(Br)C(F)(F)C(F)(F)C(F)(F)Br and report it.
97

Find the recorded boiling point belonging to C=CC(=C)F and report it.
12

Find the recorded boiling point belonging to C=CCN(CC=C)CC=C and report it.
156

Find the recorded boiling point belonging to Cn1c(=O)n(C)c(=O)n(C)c1=O and report it.
274

Find the recorded boiling point belonging to CC(C)=CCC[C@@H](C)CC=O and report it.
207

Find the recorded boiling point belonging to C1CNCCN1 and report it.
146

Find the recorded boiling point belonging to C=C(C)CCC(C)C and report it.
112

Find the recorded boiling point belonging to CCCOc1ccccc1 and report it.
190

Find the recorded boiling point belonging to CC1(C)COC1 and report it.
80.6

Find the recorded boiling point belonging to BrCCCc1ccccc1 and report it.
220

Find the recorded boiling point belonging to CCc1ccc(O)c(OC)c1 and report it.
236

Find the recorded boiling point belonging to C=C=CC and report it.
10.9

Find the recorded boiling point belonging to FC(F)(Cl)C(Cl)(Cl)Cl and report it.
91.5

Find the recorded boiling point belonging to CCCCCCCCCCCCCCCCCl and report it.
322

Find the recorded boiling point belonging to O=C(c1ccccc1)c1ccccn1 and report it.
317

Find the recorded boiling point belonging to Fc1c(Cl)c(F)c(Cl)c(F)c1Cl and report it.
198

Find the recorded boiling point belonging to CCCC(C)CC(C)C (stereo not given) and report it.
133

Find the recorded boiling point belonging to CN1CCNCC1 and report it.
138

Find the recorded boiling point belonging to CC1CCS1 (stereo not given) and report it.
107

Find the recorded boiling point belonging to CC(=O)N(C)c1ccccc1C and report it.
260

Find the recorded boiling point belonging to CC=C1CCCC1 and report it.
115

Find the recorded boiling point belonging to COC(=O)CCCCl and report it.
175

Find the recorded boiling point belonging to CCCCCCC(O)CCCCC (stereo not given) and report it.
225

Find the recorded boiling point belonging to CCCCCCC(=O)CCC and report it.
206

Find the recorded boiling point belonging to O=C(O)C(Cl)CCl (stereo not given) and report it.
210

Find the recorded boiling point belonging to CCOc1ccc(CC)cc1 and report it.
210

Find the recorded boiling point belonging to FC(F)(F)C(F)(F)C(Cl)(Cl)Cl and report it.
74

Find the recorded boiling point belonging to CCCCCCCCCC=O and report it.
208

Find the recorded boiling point belonging to Nc1ccc(Cl)c(Cl)c1Cl and report it.
292

Find the recorded boiling point belonging to C#CCCC(C)C and report it.
92

Find the recorded boiling point belonging to CCCC(C)CCC(C)C (stereo not given) and report it.
158

Find the recorded boiling point belonging to Cc1cccc(C)c1C(=O)O and report it.
274

Find the recorded boiling point belonging to CC(C)CO[N+](=O)[O-] and report it.
123

Find the recorded boiling point belonging to O=C(Cl)CCCC(=O)Cl and report it.
217
